PROTOCOL DETAILS: soluble on expression in E. coli; label from the status in PepcDB or PDB records
MEASURE: soluble on expression in E. coli

{"columns": ["SEQUENCE STRING", "MEASURE", "RESULT"],
 "data": [
  ["NKFECNLVHSKVPMGKFYFRSEPNNKISFISDIRGEGKEWQGATLISQNAPWGEELYRKVESSLTVTKPSRRFVFRKGAPSLMKAIAGGSWITLVLEGKDASALSEVRIPTIQIQKALGEFNACRERLPK", "soluble on expression in E. coli", "not soluble"],
  ["MGSDKIHHHHHHMPFVSYAQNLEDVRLWRALKLFPRGFYIDVGANHPRIDSVTLAFYERGWRGINIEPLPHLHRELERERPEDLNLNLAIGEREGRATLYEMAASGLSTLDPELARQRQAEGCTATPREVKVSTLDAICAAHVEGPIHFLKIDVEGLEGAVLRGLDLNRWRPWLILAETPFDHDPEWKAPLLAAGYRFVHFDGLNGYYLAEEQARLEGAFALPPNLLDDFQLCHGHAMSHPVAPLEQALEQALQRAEDAERALRDWRALPWYRRLFG", "soluble on expression in E. coli", "not soluble"],
  ["MGSDKIHHHHHHMQQGQMAYDRAITVFSPDGRLFQVEYAREAVKKGSTALGMKFANGVLLISDKKVRSRLIEQNSIEKIQLIDDYVAAVTSGLVADARVLVDFARISAQQEKVTYGSLVNIENLVKRVADQMQQYTQYGGVRPYGVSLIFAGIDQIGPRLFDCDPAGTINEYKATAIGSGKDAVVSFLEREYKENLPEKEAVTLGIKALKSSLEEGEELKAPEIASITVGNKYRIYDQEEVKKFL", "soluble on expression in E. coli", "not soluble"],
  ["MGSDKIHHHHHHMGIYMRDDILDIITLTTDFGTNEGYVGAMKGRILNILKKYNKDAKIIDISHEIKPFNIYHGAYVLLTAIPYFPPSVHVAVIDPTVGSERKSIVIETKSGYYLVGPDNGLFTYVAEKLGIKRIIKIDEERYKPSSTFHGRDVYAVVGAEILINNGYDGEELDEMVKIDETKKRVIHIDRFGNIITNIKKDEVTFKYYDTIMIKIRHKNGIEKIIKCKFVKSYFEEKNNFICLINSEGFLEISKFMDNASKLLNVDYLDEIEIIY", "soluble on expression in E. coli", "not soluble"]
]}

Now, please, on to the next sequence.
For MAYLYELEGIYAQLQSMDLDEETFQDTLDSIDFQSDLENNIEYFVKMLKNVQADAEKYKAEKEAFYKKQKQAEAKAEKYKETIRLAMELSQKKKVDAGMFKVSLRRSKKVEILDETKIPLDYMQEKIEYKPMKAEISKALKSGIDISGVELIETESLQVK the sequence record lists soluble on expression in E. coli as not soluble

====

PROTOCOL DETAILS: soluble on expression in E. coli; label from the status in PepcDB or PDB records
MEASURE: soluble on expression in E. coli

{"columns": ["SEQUENCE STRING", "soluble on expression in E. coli"],
 "data": [
  ["NQKMIASAFNNALGAIQDGFDATNSALGKIQSVVNANAEALNNLLNQLSLVPRGSGGSGGSGGLNVTLLDLTYEMNRIQDAIKKLNESYINLKE", "soluble"],
  ["CHEASAIGMKDTIGVGKGTVIFDDFEEADAIFVIGQNPGTNHPRMLEPLREAVKRGAQVICLNPLKERGLERFQNPQMPIEMLSNGSEPTNTAYLRPALGGDMAVFRGIAKFLLQWEREALQNGGKAVFDREFIKQHTIGIDEYLAEVDATSWEHIAEQSGLDLSEIEMVASMYRRAERVIMCWAMGLTQHRHSVPTIKEVANVQMLRGNVGKPGAGLSPVRGHSNVQGDRTMGIDEKPSDLLLDRIESRFNFD", "not soluble"],
  ["DESSKNGLMDMVSQGLNAESSPLTELLTSQLPVSTEQAAGGSSALIALAQSQLSQQNSTELQSLIPGLSNLKGAQSLLGNIESLSAVQSAFN", "not soluble"],
  ["MGSDKIHHHHHHMNVTDLPQACISLIENVPGIDFIDEDFAIFDNIDDIPSLDHPMRIDAVVFALCTKGFMRIRINMEEYVVGENHLVLSLPDQIIQHVERSEDVAGIFIVISKNFMEEIIPHIQNTLPAFFYIKEHPVTELNAEEIGCIKEYHSFLWKKVKAKRHPYRKEIAQSLLLAVFHEVYGMFKNHMPIEVKKSRQEELFAAFIQTLALHHKQERSVAFYAGKLCVTPKYLSLLVKNVSNRTAGEWIDNYVVLEAKALLSSSTLSIQEISDRLNFTNQSFFGKYFKQHVGISPTEYRKKW", "not soluble"]
]}

Record soluble on expression in E. coli per entry; entries follow.
1. MGGSHHHHHHGMASGSAGLSRLHGLFAVYKPPGLKWKHLRDTVELQLLKGLNARKPPAPKQRVRFLLGPMEGSEEKELTLTATSVPSFINHPLVCGPAFAHLKVGVGHRLDAQASGVLVLGVGHGCRLLTDMYNAHLTKDYTVRGLLGKATDDFREDGRLVEKTTYDHVTREKLDRILAVIQGSHQKALVMYSNLDLKTQEAYEMAVRGLIRPMNKSPMLITGIRCLYFAPPEFLLEVQCMHETQKELRKLVHEIGLELKTTAVCTQVRRTRDGFFTLDSALLRTQWDLTNIQDAIRAATPQVAAELEKSLSPGLDTKQLPSPGWSWDSQGPSSTLGLERGAGQ
2. GPGSMDTRDRPLPRTPPLQTPRGSCHPPLLTVEEDVRRAGQVRQVRPTKELNCRHQTSLQLYREHRRCEAEGFKERRVILRVWVLHGQHAPGGHTRPHPTGAQDRDAQAPQLRRAVESRLSPTHYEAEGDGRLNRRHHTTTACSHQRPHILRHIRRGNKDVAP

1: not soluble; 2: not soluble

Record soluble on expression in E. coli per entry; entries follow.
1. MGSDKIHHHHHHAQDKPQEEGFVFTTVKENPITSIKNQNRSSTCWSFSSLGFLESELLRTGKGEYDLSEMFVVHHTMVDRAVNYVRYHGDSSFSPGGSFYDIMFCMKNYGLVPQDAMPGIMYGDSLPVHNELDATAGAYVNAIAKGNLKKLTPVWKKGLCAIYDTYLGQCPEKFTYKGKEYTPMTFAQSLGLNPDDYVSLTSYTHHPFYSQFAIEIQDNWRNGLSYNLPLDEFMAVMDNAVKNGYTFAWGSDVSEEGFTRDGIAVVPDAAKGAELTGSDMARWTGMTAADKRKELTSKPLPEMKITQEMRQTAFDNWETTDDHGMIIYGIAKDQNGKEYFMVKNSWGTNNKYKGTWYASKAFVAYKTMNILVHKDALPKDIAKKLGIK
2. MGSSHHHHHHSSGLVPRGSHMSVPLYGFTSICGRRPEMEDAVSTIPRFLQSSSGSMLDGRFDPQSAAHFFGVYDGHGGSQVANYCRERMHLALAEEIAKEKPMLCDGDTWLEKWKKALFNSFLRVDSEIESVAPETVGSTSVVAVVFPSHIFVANCGDSRAVLCRGKTALPLSVDHKPDREDEAARIEAAGGKVIQWNGARVFGVLAMSRSIGDRYLKPSIIPDPEVTAVKRVKEDDCLILASDGVWDVMTDEEACEMARKRILLWHKKNAVAGDASLLADERRKEGKDPAAMSAAEYLSKLAIQRGSKDNISVVVVDLKPRRKLK

["not soluble", "soluble"]

====

PROTOCOL DETAILS: soluble on expression in E. coli; label from the status in PepcDB or PDB records
MEASURE: soluble on expression in E. coli

{"columns": ["SEQUENCE STRING", "MEASURE", "RESULT"],
 "data": [
  ["MSLRRILHMTEKKKKIGFNIVKNDSTDGHGGFGVGALSLENISPVFVDVLEKTAFVDIGAMHARSTVEKGIKFLTNKDEVPNGKPFWLVWVTIERTATGAYYAGVTACEMTVDREIRRGYKSLPEHVNKMDKSMKRHIMVDHMDESSKKVLGTFLKEHNEAIWNESGEELRRALLSEEGHHHHHH", "soluble on expression in E. coli", "soluble"],
  ["MGHHHHHHSHMHGWTWSVPKFMKRMKVPDYKDKAVFGVPLIVHVQRTGQPLPQSIQQALRYLRSNCLDQVGLFRKSGVKSRIHALRQMNENFPENVNYEDQSAYDVADMVKQFFRDLPEPLFTNKLSETFLHIYQYVSKEQRLQAVQAAILLLADENREVLQTLLCFLNDVVNLVEENQMTPMNLAVCLAPSLFHLNLL", "soluble on expression in E. coli", "not soluble"],
  ["MSLNDEMKGKSGKVKVMYVRSDDDSDKRTHNPRTGKGGGRPGKSRADGGRRPARDDKQSQPRDRKWEDSPWRTVSRAPGDETPEKADHGGISGKSFIDPEVLRRQRAEETRVYGENACQALFQSRPEAIVRAWFIQSVTPRFKEALRWMAANRKAYHVVDEAELTKASGTEHHGGVCFLIKKRNGTTVQQWVSQAGAQDCVLALENESNPHNLGGMMRSCAHFGVKGVVVQDAALLESGAAIRTAEGGAEHVQPITGDNIVNVLDDFRQAGYTVVTTSSEQGKPLFKTSLPAKMVLVLGQEYEGLPDAARDPNDLRVKIDGTGNVAGLNISVATGVLLGEWWRQNKAEGHHHHHH", "soluble on expression in E. coli", "soluble"],
  ["MAFADIVRSVENRTNAATLNWSIKNGWKPEVTGFSGYGSGRRVRVLARVLMSNPENLLVDAPSQSITQQAQRGWRQFFTIQVPNLPVTVTVGGKTVTSSTNDNGYVDLLVEDHNLDPGWHTIQIQAEGSTPAEARVLIVENTARIGLISDIDDTIMVTWLPRALLAAWNSWVLHTKTRKPVPGMNRFYEELLKDHPDAPVFYLSTGAWNTFETLQEFINKHALPDGPMLLTDWGPTPTGLFRSGQEHKKVQLRNLFIEYPDMKWILVGDDGQHDPLIYGEAVEEHPNRIAGVAIRELSPGEHVLSHGTTASLSTITTNGGQGVPVVHGRDGYELLQRYETKPFALEHHHHHH", "soluble on expression in E. coli", "soluble"],
  ["SRTVALGIVAMACLVAIAHGGNFFQDAEVSWGQGRGKIVDGGRGLDLTLDRSSGSGFQSKSEYLFGKIDMQIKLVPGGWWNQELSDMSYRRMRWVQRKFMIYNYCTDAKRFPQGTPAECKLR", "soluble on expression in E. coli", "soluble"]
]}

Record soluble on expression in E. coli per entry; entries follow.
1. MAEGQIIKALSGFYYVLSEGRVFQCRGRGVFRKKKVTPLVGDRVVFQATSETEGYILEIGERQNELVRPPIANVEQAILVFSAVSPDFSAKLLDRFLVLVESKRIAPIIVISKIDLLDGESKEEIARYVHDYRSIGYDVIETSAVTKGGLDELALRLRGRVSVVAGQSGVGKSSLLNALRPDLRLKTGDISTHLGRGKHTTRHVELLEVAGGLVADTPGFGALEFDQIELDELPHYFPEFRTYGEGCKFRGCLHIAEPKCAVREAVEAGEIPSYRYDHYVSFVAEMKERKPRY
2. MSLNIAMTGATGYIGKHLSNYLTEKGGHRIIPLGRAMFREGMSGLLVQTLTHCDVIINLAGAPINQRWTPEHKQELFNSRITVTHRIIRALNAVKTKPKLMISASAVGYYPSLVESDEYTQTRGDGFLSDLCYAWEKEAKRCPQPTRLVITRFGVVLSPDGGAMQQMLRPLRATKVAAVIGPGTQPFPWIDIRDLCCAMAFFIENEELRGVFNLVAPQAVSQSTFTRAMGKAYHAWTTEGHHHHHH
3. MEPIWRNYPYPTYPGHHNFQFDPLLSDGSHTGVNQLGGVFVNGRPLADTVRAQIVEMSQHGTRPCDISRQLKVSHGCVSKILGRYYSTGSVRPGVIGGSKPKVATPRVVECIAGYKRANPTMFAWEIRQKLIEDQICGEENVPSVSSINRIVRNKSFMAQLAAPTSVTSSAARPSSATSHHQRSPPRGVQQHMQQSTSVQQLQQLQLTSAATVNSLMTPPAFAMPGTAYSINGLLGTLPQPSLLDDKFTNLSTQSADMSLVYSTGLVGEHDWTMRTPMVILPQNYCGQL
4. MATVDPIRYPIGTFQAPQQFEAGEVQEWIAAIRGLPSDLRTAVSGLNDEQLNTPYREGGWTVAQVVHHLADASMNAFLRTKWGVTEDGPTVKPFAESEWAKTADACLLPIEPSLLLLDGLHARWAALLESMTEADFHRTVRPEGAAGEMPLYVLTALYAWHGKHHTAQVASLRKRKGW
5. MGSDKIHHHHHHMNIEGNIAIICITENGKKLALKINSLVNNCVIYQVKNKKSNLVVEETCVHTVQKKLSDFVGEIFSKFDYIVFIMATGIVVRSIAPYIISKFSDPAILVMDEKGKNVISLLSGHIGGANSLTQYISSLIDANPVITTATDINQKASLDMIAKKLNAHIDNFRESVKEVNSMLVNNKCVGLYVDEGYQVDTRGFKLIESKDELRDSFSNTYIEKLVVVSNKINCIEDIENLNLDNKFEHCYSTQKIIKVIPRDIVIGIGCRRNTDSELMYNSLEEFLNKQNIDIRAINTVGSIELKKDEKAIIELSKILKVPFKTFSVDEISKVDNLFDKSDFVKKNVGVYSVAEPVAYLLSKGNLLVEKHKYKGITFSVGRIKI

1. not soluble
2. not soluble
3. not soluble
4. soluble
5. not soluble

For MSLASVIADVPGMKTIVQVLTFRDYQYDDGWHQANIEVPAISGLEESGLGQALNQKYLEENKKLYEDFMADVEEMKALGDGHMGVDSGYEIKTDNERLLAIGRYVVNTVGSSSTVFKYDTIDKVDQVLITLPSLFKDDSYVQVISDYIVNEMKAKMKADSNLIYWVVTDENKDEVNYFEPFTQIKPEQSFYINSDYKLVISFDKYEVGPGVMGMQEFVIPTEVIADRLVSDEYVREGHHHHHH the sequence record lists soluble on expression in E. coli as soluble
